Numbers sourced from PubChem BioAssay.

# measurement_description: serotonin-gated TRPC4 signal block – cell-based, second counter screen, HEK293 TRPC4/5HT1a, Fluo-4, counter-screen for TRPC4 inhibitor project, confirmation (AID 434978);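 on Outcome: serotonin given first at submaximal then at maximal dose after compound preincubation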
# reported_conditions: Fluo-4 calcium flux, at 10 µM, serotonin added to trigger calcium flux
The source made the active and inactive calls.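 How the source made its calls: active means primary screen active whose calcium signal fell more than 3 SD beyond the full-serotonin control mean in both duplicate plates; inactive means the rest.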
Outcome (select one): 1 = active, -1 = inactive

| compound | class_name |
| --- | --- |
| O=C(Nc1ccnn1C1CCN(Cc2cc3ccccc3[nH]2)CC1)C1CCOC1 (configuration not stated) | -1 |
| CCOC(=O)C1(Cc2cccc(OC)c2)CCN(Cc2ccc(OC)c(O)c2)CC1 | -1 |
| COc1ccc2nc(C)cc(NCc3ccc(F)cc3)c2c1 | -1 |

Lab log entry: COc1cc(CNCCCN2CCOCC2)cc(Br)c1OCc1ccc(Cl)cc1 — outcome as called in the assay? 1

Lab log entry: CN1C(CC(=O)Nc2ccc(Br)cc2)c2ccccc2CC1(C)C (configuration not stated) — outcome as called in the assay? -1

Lab log entry: CC(=O)Cn1ncc(N2CCOCC2)cc1=O — outcome as called in the assay? -1
